Where do these numbers come from? They come from the nanobody polyreactivity screen of Harvey et al. (2022).

# Experimental details: yeast display, Sf9 membrane polyspecificity reagent, FACS + sequencing; frameworks hold sequencing errors
Experimental readout: polyreactivity (PSR sort gate)

• QVQLVESGGGLVQAGGSLRLTCAASGIIFASNAMGWYRQAPGKEMELVATINWTDSSTYYADSVKGRFTISRDNAKNTVYLQMNSLKPEDTAVYYCNGVPHWFYRYGRYDYWGQGSQVTVSS = low polyreactivity
• QVQLVESGGGLVQAGGSLRLSCAASGSIFGKNAMGWYRQAPGKDRELVAAISWSGGRTYYADSVKGRFTISRDNAKNSVYLQMNSLKPEDTAVYYCAASWWGVARGSSRKKYDYWGQGTQVTVSS = high polyreactivity
• QVQQQVSGGGLVQAGGSLRLSCAASGYIFQNVPMGWNRQAPGKERDLVAGIDNGTSTNYADSVNGRFTISRDNAKNTVYLQMNSLKPEVTAVYYCAAAGQADDTLGYWGQGTLVTVSS = low polyreactivity
• QVQLVESGGGLVQAGGSLRLSCAASGRTFPLNAMGWFRQAPGKERELVAAITWSGGRTYYADSVKGRFTISRDNAKNTVYLQMNSLKPEDTAVYYCAAKRTTWKIQSGYDYWGQGTQVTVSS = low polyreactivity
• QVQIVESGGGLVKAGGSLRLSCAASGSTFERYAMGWYRQAPGKERELVAAINWSGGGTYYADSVKGRFTISRDNAKNTVYLQMNSLKPEDTAVYYCAADSGTVVFSLWWYEYYYWGQGTQVTVSS = low polyreactivity
• QVQLVESGGGLVQAGGSLRLSCAASGFTLFDYAMGWYRQAPGKERELVAAITTSGGSTYYADSVKGRFTISRDNAKNTVYLQMNSLKPEDTAVYYCAVEYMLTYYYYVSYEYYYWGQGTQVTVSS = high polyreactivity

Q. Indicate the recorded polyreactivity (PSR sort gate) value for this sequence: QVQLVESGGGLVEAGGSLRLTCAASGSIFTYYAMGWFRPAPGKERELVADITKSGGRTYYADSVKGRFTISRDNAKNTVYLQMYSLKPEDTAVYYCAAYRRNSRWELDYWGHGTQVTVSS
A. high polyreactivity

Q. Indicate the recorded polyreactivity (PSR sort gate) value for this sequence: QVQLVESGGGIVQAGGSLRLSCAASGFIFGPYTMGWYRQAPGKERELVAAINNSGSTNYADSVKGRFTISRDNAKNTVYLQMNSLKPEDTAVYYCAAEPIIFVRYDYWGQGTHVTVSS
A. low polyreactivity

Q. Indicate the recorded polyreactivity (PSR sort gate) value for this sequence: QVQLQESGGGLVQAGGTLRLSCAASGSFSADEDMGWYRQAQGKEREFVAGISVGGNTNYADSVKGRFTISRENAKNTVYLQINSLKPEDTAVYYCAVLQDVYDALDYWAQGTQVTVSS
A. high polyreactivity

Q. Indicate the recorded polyreactivity (PSR sort gate) value for this sequence: QVQLVESGGGLVQAGGSLRLSCAASGFTFRYNAMGWYRQAPGKERELVATISWRGTSTYYADSVKGRFTISRDNAKNTVYLQMNSLKPEDTAVYYCAALGTVGYDYWGQGTQVTVSS
A. low polyreactivity

Q. Indicate the recorded polyreactivity (PSR sort gate) value for this sequence: QVQLVESGVGLVQAGGSLRLSCAAAGYIFFFYAMGWYRQAPGKERELVASITYRGGSTYYADSVKGRFTISRDNAKNTVYLHMNSLKPEDTAVYYCNVDGGGPLGPQGFPFDYWGQGTQVTVSS
A. low polyreactivity
